Test: soluble on expression in E. coli; label from the status in PepcDB or PDB records
Value Type: soluble on expression in E. coli

| Ordered Residues | Measurement |
| --- | --- |
| MGSDKIHHHHHHMTVRDFHYYEPAEGHGLSHNPLNALVAPRPIGWISSRDAQGRVNLAPYSFFNAFNYDPPIIGFSSIAWKDSVQNASETREFTWNLVTRELGDQMNQTSSPLPHGEDEFQFAGLTAVAGRKVNVPRVGESRAAMECKVIDIVQFRNTAGEKVGGWLVLGEVVAVYIDKTLLKDGVYQTAEAYPIMRSGGLNDYVQVSPDNVFQIARLAGASSPSSHGKG | not soluble |
| SNAEWESITPPVVDAPAVVEFFSFYCPPCYAFSQTMGVDQAIRHVLPQGSRMVKYHVSLLGPLGHELTRAWALAMVMKETDVIEKAFFTAGMVEKRLHSPDDVRRVFMSATGISRGEYDRSIKSPAVNDMVALQERLFKEYGVRGTPSVYVRGRYHINNAAFGAFSVENFRSRYAAVVRKLLAGNPDAD | soluble |
| HDGIERELTIAVNNIIPGDLLVAFIRDFERQFTSTTLTVDLEVYNGCWDALYSKRADLVYGAPHAVPSSEGIISEPVGQMEWDFVVSPLHPLAAKRHPLENSELRHYPAVCIRDTSVNFPPMQAWLLEGQKPIFVPDFATAIALIE | not soluble |
| ASQKVEKTVIKNETGTISISQLNKNVWVHTELGSFNGEAVPSNGLVLNTSKGLVLVDSSWDDKLTKELIEMVEKKFQKRVTDVIITHAHASRIGGIKTLKERGIKAHSTALTAELAKKNGYEEPLGDLQTVTNLKFGNMKVETFYPGKGHTEDNIVVWLPQYNILVGGCLVKSTSAKDLGNVADAYVNEWSTSIENVLKRYRNINAVVPGHGEVGDKGLLLHTLDLLK | soluble |

====

Experiment: soluble on expression in E. coli; label from the status in PepcDB or PDB records
Value Type: soluble on expression in E. coli

| Ordered Residues | Measurement |
| --- | --- |
| VDNVLVIIGPTASGKTKLAIEIAKRANGEIISADSMQIYKYMDIGTAKPDEEEKEGIKHYLIDEVTPDEEFSVARFKELALKYIDEILSKGKLPIVAGGTGLYINSLIYNLEFSDTICDWELRKKLEQEAKEKGNEYLHNKLKEIDPKAAEKIHMNNVKRVIRAIEVYTYTKKPISVHQEESRKNPPRHNFILIGITMDREKLYDRINKRVDLMLEKGLVKEVEKLVEMGYDKSTIAMQGLGYKEILSYLRGERSLDEAVEILKRDTRRYAKRQMTWFRKIENVYWINKDEFDSDEKIIKNLKYYLATFGIFL | soluble |
| MPLFKRRDGSGPAPNATIREKYDFRDVLGTGAFSKVFLAESKSDAGQMYAVKCIDKKALKGKEESLENEIKVLRKLRHNNIVQLFDTYDEKQFVYLVMELVTGGELFDRIVAKGSYTEQDASNLIRQVLEAVGFMHDNGVVHRDLKPENLLYYNQDEDSKIMISDFGLSKTEDSGVMATACGTPGYVAPEVLQQKPYGKAVDVWSIGVIAYILLCGYPPFYDESDANLFAQIIKGEYEFDAPYWDQISDSAKDFITHLMCCDPEARFTCQDALSHPWISGNTAYTHDIHGTVAVHLKKSLAKRNWKKAYNAAAAIRQLQMLRLSSNSNRLQKQASQQQPEPPTPAFHA | soluble |
| MSLTYYDDIRKVQDLHLPWEILTDINILIVGASGLIGRALVDTLMQLPDKTFHLYAGVRDLVYAQSCFMRYKDDESFTLIQCDVTALIPFDIDFHYIIHAASYAGPAAFHNDPVGVMKANILGVDNLFSYGEQHNLRRLLYVSSGEVYGEGNGIPFREEDSGSLDWASLRACYPAAKRTAETLCIAYAAQFQIETVIARPCHIYGPFYTSKDDRAYAQFIRNVLAGENIILRSSGLQQRSWCYVVDCVFALLYVLLKGKTKNAYNIADVRSNVSIREFAEMIALKSEREVIFDLPDNTGKNKPIISQAIFNTEKINKIGWFPQWKLEEGVSHTLNTLISVDGTYEGHITITTDPNSSSVDKLAAALEHHHHHH | soluble |
| MRTRIDYLADKYCFTERNESPRLRRQWQDVLEECRQTEAGPEERLRIALLNVDYVTSFELPFRLLLTRTPQLIAALREEWGISQKNVVFNDKRFGCVYSLKASLSGVPDTYRYHLSHRIRRVVGNENTSLPYQQVAREVKAPRERLKYALEAGLLVTALDGLFRFGSQRIAADVLRLRKAGMPVVTTTVEVHDNLTGTTRKVPAYHL | not soluble |
| GMKDNYDAPESMLTGRVMYNGEALQLRGNEAVQLQLYQHGYAKHDPINVYVNQDGMYSANLFDGEYQMITKSGNGPWTSEGRDTINVTVAGNTVQDVEVTPYYLVRDAQMTLEGNKVNASFKVEKVAGGGIDRVFFMLSTTQFVNDAEHNVDRYDETDNLDAYDETGKLYTFATRDYTDNSMFQTALKRGTLFGRICIWPKGSDQGIYSKVIRLK | soluble |
| MSLTQQITLIKDKILSDNYFTLHNITYDLTRKDGEVIRHKREVYDRGNGATILLYNTKKKTVVLIRQFRVATWVNGNESGQLIESCAGLLDNDEPEVCIRKEAIEETGYEVGEVRKLFELYMSPGGVTELIHFFIAEYSDNQRANAGGGVEDEDIEVLELPFSQALEMIKTGEIRDGKTVLLLNYLQTSHLMDEGGSHHHHHH | soluble |
| MAKLFFRYAAMNSGKSTQLLQIANNYESMDKKVALYTSAIDDRYGVGMITSRLNIQRESNTFDAGFDFLAHDYGDTACVLVDEAQFMTPEQAQQLHRLAHKRNIPVICFGLRTDFQGHPFPGSAWLLSLADDVEEIKTICHCGRKATMHIRIDGDGRRVKEGPQVEIGGEARYRAVCGRCFHHDLEHHHHHH | soluble |
| MSAKQKELERLLELKKKQEEQQVLNQKDMLERIKLENKYMEFLQMTSQQMEEELKKRGPVKEVEVKGKDIDPIIADYKKLYSKESWYKEPETKDGKTHLTFPSQEAAGTFFKDQAEKNRSFIVIDAATNKVLAYSNGDGKLYNGNGSLYQGGDFKASKEDFTSFKMPEREEPKMGMQL | not soluble |
| MKIAIPKERRPGEDRVAISPEVVKKLVGLGFEVIVEQGAGVGASITDDALTAAGATIASTAAQALSQADVVWKVQRPMTAEEGTDEVALIKEGAVLMCHLGALTNRPVVEALTKRKITAYAMELMPRISRANSMDILSSQSNLAGYRAVIDGAYEFARAFPMMMTAAGTVPPARVLVFGVGVAGLQAIATAKRLGAVVMATDVRAATKEQVESLGGKFITVDDEAMKTAETAGGYAKEMGEEFRKKQAEAVLKELVKTDIAITTALIPGKPAPVLITEEMVTKMKPGSVIIDLAVEAGGNCPLSEPGKIVVKHGVKIVGHTNVPSRVAADASPLFAKNLLNFLTPHVDKDTKTLVMKLEDETVSGTCVTRDGAIVHPALTGQGA | soluble |
| GPGSMLSERACLHPGRALKCERFLAIFPQNVKEMLLQNPLFVQNSRVAERSIIRHNQFLLACYMTYLILRNDENAEGQALKYINFMPRNEGNFEQLISNMNGVLDGAAACQSAQAALSLQFGITQAEVRPLLQWSMAMIFSRMAPIDHRWTLQCAFKNTPFAPAFDIRGPDDDANMVKEPIAFLCPVIDMCNHSDHENVALMVPQRTDSSHESVICLRSLRDIDRGEELTMTYGGSPTELRVIWGMQRVL | not soluble |

Data request: For the sequence MISLPIDLVLPDLREALVNRNEVILEAPPGAGKTTRVPLALLNESWLGDQKILMLEPRRLAARAAAERLASELGEKVGEIVGYRIRLESKVGPRTKIEVVTEGILARRLQDDPALDGVGVVIFDEYHLRNLHSDLALALCLSGRDLLRDDPPLKLLLMSAT , give its measured soluble on expression in E. coli value.
Data returned: not soluble

====

Test: soluble on expression in E. coli; label from the status in PepcDB or PDB records
Value Type: soluble on expression in E. coli

Here is how some sequences turned out for soluble on expression in E. coli.
| Ordered Residues | Measurement |
| --- | --- |
| MASKRLGKQTVMLQNPPRITSTASIVGPKEGKGPLRLFFDNIIEDEMWGEKSWEKAESKLIRETFSKVLQKGNKTSQEIDYVISGDLLNQCIAANFGLRESDVPFFGVYGACSTIAESMSIGAMLVDGGFADNVVCITSSHFCSAEKQFRFPLELGTQRPPSAQWTVTGSGGVLISNDGSGPYITHITTGKIVDMGIKDANNMGAAMAPAAVDTIVTHFKDTGFTPESYDLILTGDLGAIGREICVELTREQGFNIENIYNDCGLMIYDREKQDTHAGGSGCGCAATVFAGFVYKKLMDGTLKNVLFVATGALLSPVSTQQGESIPSIAHAISITTSPER | soluble |
| KRGPSAVTVVTEQVETHEINQSLSLIGKLKAAESVVVASEVAGKVKQIAVKANQNVQQNQLLIQLDDDKAQAALVEAKAYLKDEERKLKEFQRLVKRNAITQTEIDAQKASVEIAQARLDAAKANLADLHITAPFSGTVGFIDFSRGKMVSAGTELLTLDDLSVMELDLQIPERYLSMLSVGMEVAAKTSAWGEQRFSGKVTGIDTRISAETLNLRVRIEFDNPENQLKPG | not soluble |
| MGSDKIHHHHHHMAEKPISLSQAPAGYSDWLSELKTKIHSAQQRATLAVNQELVLLYWQIGQEILTRQAELGWGAKVVERLAHDLRTAFPDMKGFSPRNLKYMRAFAEAWPDLEFVQALLAQLPWYHQLALLDKLDNTDSRTWYAQKALENHWSRNVLVMHIESGLHQRQGAAITNFAATLPKPQSDLARESIKDPYRFDFLGLTEAAQEREIEHALVQHVTQFLLELGAGFAFVGRQVLMQVGDEEFFIDLLFYHLKLRCYVVIELKTGKFKPEHLGQLSFYMTAIDKQVKTEPDNATIGLLLCKSKDKVVAEYALGDKSQAMGIAEYKLQQALPEVLESNLPSIEQIERELQGEA | not soluble |
| MGKNEILWGIAPIGWRNDDMPEIGAGNTLQHLLSDIVVARFQGTEVGGFFPEPAILNKELKLRNLRIAGKWFSSFILRDGLGEAAKTFTLHCEYLQQVNADVAVVSEQTYSVQSLEKNVFTEKPHFTDDEWERLCEGLNHLGEIAAQHGLKLVYHHHLGTGVQTAEEVDRLMAGTDPAHVHLLYDTGHAYISDGDYMGMLEKHIGRIKHVHFKDARLNVMEQCRLEGQSFRQSFLKGMFTVPGDGCIDFREVYQLLLKHSYSGWIVIEAEQDPDVANPLEYALIARNYIDQQLLDLAMGHHHHHHSH | soluble |

Data request: For the sequence QMSLEGTEKASWLGEQPQFWSKTQVLDWISYQVEKNKYDASAIDFSRCDMDGATLCNCALEELRLVFGPLGDQLHAQLRDLTSSS , give its measured soluble on expression in E. coli value.
Data returned: soluble

Data request: For the sequence MGSDKIHHHHHHMEVEITITVRKVRIPEDVAVLEIFGQYDKRARYLKKLFNVEFAVRDSEILIKGMDEKSVDAAHRVLDEIISITRDGHLLDWTEFEYLVERVSNSESVKEVYSNNSKGLIIGKKVKPKTLGQKKYLEAVEKNDVVFVIGPAGTGKTYLAVAVALDYLKMGKVNRIILTRPAVEAGEKLGYLPGDLSEKVEPYLRPLYDAIIDITSPDKFNSYRERGIIEIVPLAYMRGRTLNNSFIILDEAQNTTYQQMKMFLTRLGFNSKAVITGDITQVDIEKEKSGLIECQKILEGISGIEFVYLNESDVVRHPLVKKIIKAYEEYERSRKS , give its measured soluble on expression in E. coli value.
Data returned: not soluble

Data request: For the sequence MGNQRHHYNDYEDVRMLKWVARNDKSLGPFGIITWQLYVEAYNCPYSVQSLCGRMRRQIVPNIDYYSRHLKSSDLISLERRFGSRLGAETRKYIRNLAVKTVKIVQVVASRPVEKNSEIEVQKVASLELQAAPTAPTTSAAQLGKTKSPGARTQRIERNDELSRDVFESSCASTIVEPEPPQEEPPQRSHNWKTEMRKIAGQAAQAINDLIRQTVENNDFNKKMFAELENQQNLDHLYGKMFDDPNKADWIMIDVKKFTENHLRMQYFRKIREELHKRFTNQHIIRAVFCFFQFFEYYVTVCVDESTDNYILLMNKVLEMSIKLLPLYIVHC , give its measured soluble on expression in E. coli value.
Data returned: not soluble
